# Tested on: rRNA in HCV-replicon RNA-containing Huh7 cells
# METHOD: rRNA levels in HCV replicon cells (cellular toxicity), Q-RT-PCR after 96 h
# EXPERIMENTAL_SETUP: 100 μM
Structures can show the parent of a compound that is named as a salt.
So basically, if Log10 RNA reduction (100 μM) rRNA comes in under 0.5 log10 it's t, and if it's 0.5 log10 or more it's f.

# check: Log10 RNA reduction (100 μM) rRNA < 0.5 log10 for "Nc1ccn([C@@H]2C=C(CO)[C@@H](O)[C@H]2O)c(=O)n1"
f

Quick check: does "Nc1n[nH]c(N)n1" have Log10 RNA reduction (100 μM) rRNA under 0.5 log10?
t

Is Log10 RNA reduction (100 μM) rRNA of "O=c1cnn([C@@H]2O[C@H](CO)[C@@H](O)[C@H]2O)c(=S)[nH]1" strictly below 0.5 log10?
t

Regarding "C[C@@]1(O)[C@H](O)[C@@H](CO)O[C@H]1n1ccc(N)nc1=O" , kindly confirm whether its Log10 RNA reduction (100 μM) rRNA is beneath 0.5 log10.
t

Input O=C(O)C[C@H](NC(=O)CP(=O)(O)O)C(=O)O [PALA, N-(phosphonoacetyl)-L-aspartate] ; condition: Log10 RNA reduction (100 μM) rRNA strictly below 0.5 log10. Does it hold?
t

Regarding CN(Cc1cnc2nc(N)nc(N)c2n1)c1ccc(C(=O)N[C@@H](CCC(=O)O)C(=O)O)cc1 [Methotrexate, methotrexate] , kindly confirm whether its Log10 RNA reduction (100 μM) rRNA is beneath 0.5 log10.
t

API: query returns whether the compound falls strictly under 0.5 log10 in Log10 RNA reduction (100 μM) rRNA. Query: "O=c1[nH]c(=O)n([C@H]2C[C@H](O)[C@@H](CO)O2)cc1F"
f

Given the entry "COc1c(C)c2c(c(O)c1C/C=C(\C)CCC(=O)O)C(=O)OC2" , would its reported Log10 RNA reduction (100 μM) rRNA be below 0.5 log10?
f

# check: Log10 RNA reduction (100 μM) rRNA < 0.5 log10 for CC(=O)N(O)CCCCCNC(=O)CCC(=O)N(O)CCCCCNC(=O)CCC(=O)N(O)CCCCCN [Deferoxamine, deferoxamine mesylate]
f

Just wondering, is Log10 RNA reduction (100 μM) rRNA of "COc1c(C)c2c(c(O)c1CCOP(=O)(O)CP(=O)(O)OC[C@H]1O[C@@H](n3cnc4c(N)ncnc43)[C@H](O)[C@@H]1O)C(=O)OC2" below 0.5 log10?
f

Bench note: check whether "NC(=O)c1[nH]nc([C@@H]2O[C@H](CO)[C@@H](O)[C@H]2O)c1O" shows Log10 RNA reduction (100 μM) rRNA below 0.5 log10
t

For NC(=O)NO [Hydroxy Urea, hydroxy urea] , is the recorded Log10 RNA reduction (100 μM) rRNA below the cut-off of 0.5 log10?
t

I'd appreciate it if you could check whether "C[C@@]1(O)[C@H](O)[C@@H](CO)O[C@H]1n1cnc2c(N)ncnc21" has Log10 RNA reduction (100 μM) rRNA smaller than 0.5 log10.
f

Is Log10 RNA reduction (100 μM) rRNA of "NC(=O)c1csc([C@@H]2O[C@H](CO)[C@@H](O)[C@H]2O)n1" strictly below 0.5 log10?
f
